From: patent US11905559B2

Measurement notes: Constant-force (CF) single-molecule optical tweezers folding assay of guanine-aptamer RNAs in guanine buffer
Format: physicochemical
Run parameters: transition BA (P1 folding); F 8.5 pN; 3 mM Mg^2+, 200 nM G; no helix width adjustment
Attribute measured: Transition distance ΔX (nm)
Answer format: numeric, nm implied, no suffix.

[
  {
    "Molecule": "m6: m6 mutant guanine sensing aptamer RNA (SEQ ID NO: 7); U67A, shorter P3 hairpin and larger L3 loop (nucleic acid, RNA, backbone and methylation of C not given here, U67A, shorter P3 hairpin and larger L3 loop) CACUCAUAUAAUCGCGUGGAUAUGGCACGCAAGUUUCUACCGGGCACCGUAAAAGUCCGACUAUGGGUG",
    "Attribute measured": "Transition distance ΔX",
    "Units": "nm",
    "Reading": 9.8
  },
  {
    "Molecule": "m8: m8 mutant guanine sensing aptamer RNA (SEQ ID NO: 9); A19G and U77C in the P1 hairpin (nucleic acid, RNA, backbone and methylation of C not given here, A19G and U77C in the P1 hairpin) CACUCGUAUAAUCGCGUGGAUAUGGCACGCAAGUUUCUACCGGGCACCGUAAAUGUCCGACUACGGGUG",
    "Attribute measured": "Transition distance ΔX",
    "Units": "nm",
    "Reading": 9.5
  },
  {
    "Molecule": "m4: m4 mutant guanine sensing aptamer RNA (SEQ ID NO: 5); A59G/U67C in the P3 hairpin (nucleic acid, RNA, backbone and methylation of C not given here, A59G/U67C in the P3 hairpin) CACUCAUAUAAUCGCGUGGAUAUGGCACGCAAGUUUCUACCGGGCGCCGUAAACGUCCGACUAUGGGUG",
    "Attribute measured": "Transition distance ΔX",
    "Units": "nm",
    "Reading": 9.5
  }
]

Data request: I am curious: what Transition distance ΔX value has been reported for wt: 69-nucleotide full-length wild-type guanine sensing aptamer RNA sequence from xpt-pbuX operon in B. subtilis (SEQ ID NO: 1) (nucleic acid, RNA, backbone and methylation of C not given here) CACUCAUAUAAUCGCGUGGAUAUGGCACGCAAGUUUCUACCGGGCACCGUAAAUGUCCGACUAUGGGUG ?
Data returned: 9.9
